B1: TPR t1 (parent)
chain: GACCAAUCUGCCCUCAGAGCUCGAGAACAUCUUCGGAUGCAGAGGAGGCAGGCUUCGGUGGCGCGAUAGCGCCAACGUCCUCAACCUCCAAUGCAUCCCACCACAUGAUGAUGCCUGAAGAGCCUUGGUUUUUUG

Variants of: B1
Assay: polymerase ribozyme fitness, log enrichment relative to wild type (log ratio); higher = more active; in vitro selection for triplet polymerase activity
Decide by polymerase ribozyme fitness (log ratio): equal to or exceeding -2 means Condition met, less means Condition not met.

Is reported polymerase ribozyme fitness (log ratio) greater than or equal to -2 here: C13U C123U
Condition met

Decide: polymerase ribozyme fitness (log ratio) of C34A G61U A111G >= -2?
Condition not met
